- System: HBV cccDNA
- assay.comment: HBV cccDNA formation in infected HepG2-hNTCP cells (Hirt extraction, Southern blot, RT-qPCR)
- Format: cell-based, HBV (Genotype D)
- experimental.conditions: Hepatitis B virus; HepG2-hNTCP cells, HBV 1000 Geq/cell, harvested 3 dpi; read-out: IC50, decline of cccDNA relative to DMSO treated controls
pIC50: −log10 of the molar value.
attribute.measured: pIC50

Exercise: Provide the reported pIC50 (system: HBV cccDNA) for O=C(Nc1ccc2nc(NC(=O)c3ccc4ccccc4c3)sc2c1)c1ccccc1 [F7]
Key: ~5.07

---

- assay.comment: in vitro
- experimental.conditions: human
attribute.measured: CC50 at 72 h

Exercise: Please give measured CC50 at 72 h of the following entry: O=C(Nc1ccc2nc(NC(=O)c3ccc4ccccc4c3)sc2c1)c1ccccc1
Key: > 40 µM

---

- assay.comment: in vitro
- experimental.conditions: human, HepG2-hNTCP cells (HepG2-C3A-hNTCP)
attribute.measured: CC50 at 72 h

Exercise: Check the records and state CC50 at 72 h for O=C(Nc1ccc2nc(NC(=O)c3ccc4ccccc4c3)sc2c1)c1ccccc1 [F7]
Key: > 40 µM
